logD listing for selected compounds.
# ASSAY_COMMENT: Lipophilicity, log D of the compound
# Assay type: physicochemical
# ASSAY_SETUP: octanol/water
No unit in the answer, please; the number alone is enough.

Here is how some compounds turned out for logD.
INSERT INTO measurements (smiles_str, value_measured) VALUES
  ('FC(F)(F)c1cc(NCc2cnc(-c3ccc(C4CC4)cc3)s2)ccn1', 4.19),
  ('CC(C)Oc1ccc(-c2ncc(CNc3cc(C#N)nc(C(F)(F)F)c3)s2)cc1Cl', 5.01);

Ask: # query: logD of entry "N#Cc1cc(NCc2cnc(-c3ccc(Oc4ccccc4)cc3)s2)ccn1"
Result: 3.15

Ask: # query: logD of entry "COc1ccc(-c2ncc(CNc3ccnc(C(F)(F)F)c3)s2)cc1Cl"
Result: 4.84

Ask: # query: logD of entry "CC(C)Oc1ccc(-c2ncc(CNc3ccnc(C(F)(F)F)c3)s2)cc1"
Result: 4.01

Ask: # query: logD of entry "FC(F)(F)c1cc(NCc2ncc(-c3ccc(Oc4ccccc4)cc3)s2)ccn1"
Result: 5.54
